Values were extracted from PubChem BioAssay.

target: L-lactate dehydrogenase (Plasmodium falciparum (isolate CDC / Honduras)); test: PfLDH activity inhibition – cell lysate, 3D7 strain, counter-screen for P. falciparum growth inhibition project (AID 2304);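 note: 0% = vehicle and 100% = reference inhibitor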; details: P. falciparum 3D7 crude extract, LDH APAD/NBT absorbance; at 2 µM; stronger effect = higher value
parameter: inhibition (%)
Reply with just the number (in %).

Q: Provide measured inhibition value, entry: Fc1cccc(COc2ccc(Nc3ncnc4ccc(-c5nnc(C(F)(F)F)o5)cc34)cc2Cl)c1
Result: 5

Q: Provide measured inhibition value, entry: COc1ccc(NC(=O)Nc2ccc(-c3ccncc3)c(C(F)(F)F)c2)cc1N1CCN(C)CC1
Result: 2

Q: Provide measured inhibition value, entry: NC1CCN(CCc2ccc(NS(=O)(=O)c3cccc4ccccc34)cc2)CC1
Result: 4

Q: Provide measured inhibition value, entry: CN(C)c1ccc(CN2CCC(NC(=O)c3ccc(-c4cccc(F)c4)s3)CC2)cc1
Result: -1

Q: Provide measured inhibition value, entry: C#CCCC(=O)Nc1cccc(-c2cccc(-c3nc4c(C)cccc4[nH]3)c2)c1
Result: -3

Q: Provide measured inhibition value, entry: COC(=O)c1c(C#N)c(OC)cc(O)c1CSC[C@@H](CN1CCCCC1)Nc1nc(-c2ccc([N+](=O)[O-])cc2)cs1
Result: -3

Q: Provide measured inhibition value, entry: Cc1cc(C(=O)NCc2ccc(-c3c(C)noc3C)cc2)n(-c2ccccc2)n1
Result: 3

Q: Provide measured inhibition value, entry: Cc1cc(N(C)C2CCN(CC3CCCCC3)C2)nc(Nc2ccc(Cl)cc2)n1 (centres undefined)
Result: -5

Q: Provide measured inhibition value, entry: c1ccc(-c2nnc(-c3ccccn3)nc2NC2CCCCC2)cc1
Result: 6

Q: Provide measured inhibition value, entry: O=C(Nc1cccc(-c2cccc(F)c2)c1)C1CCN(Cc2ccc(O)cc2)CC1
Result: 3

Q: Provide measured inhibition value, entry: O=C(Nc1ccc(Cl)cc1Cl)NC1CCN(CCCCCNC(=O)[C@@H]2C[C@H]2c2ccc(Cl)c(Cl)c2)CC1
Result: 0

Q: Provide measured inhibition value, entry: CCc1ccc(-c2cnc(N)c3cc(-c4ccnc(N)n4)ccc23)cc1
Result: 0

Q: Provide measured inhibition value, entry: CCCCCCCN1CC[C@@H](CCCc2ccnc3ccc(OCCN4CCNCC4)cc23)[C@@H](CC)C1
Result: -2

Q: Provide measured inhibition value, entry: Clc1ccc(-c2[nH]c3ccccc3c2CN2CCC(N3CCCCC3)CC2)cc1
Result: 5

Q: Provide measured inhibition value, entry: CCOc1cc(C(=O)NCC2CCN(CC3CCCCC3)CC2)ccc1-c1nc2ccc(Cl)cc2[nH]1
Result: -6

Q: Provide measured inhibition value, entry: CC(C)[C@H](NC(=O)NC1CCC(CCN2[C@@H]3CC[C@H]2CC(OC(=O)C(CO)c2ccccc2)C3)CC1)C(O)(c1ccccc1)c1ccccc1 (some centres undefined)
Result: 1

Q: Provide measured inhibition value, entry: Cc1cc(-c2cccc(CNC3CCN(C)CC3)c2)ccc1S(=O)(=O)NCCN1CCCC1
Result: 0

Q: Provide measured inhibition value, entry: CCOC(=O)N1NC(=O)N(c2ccccc2)C1(c1ccccc1)c1ccccc1
Result: 6

Q: Provide measured inhibition value, entry: O=C(Nc1cccc(-c2ccc(-c3nc4ccccc4[nH]3)cc2)c1)c1cccnc1
Result: -5

----------
target: L-lactate dehydrogenase (Plasmodium falciparum (isolate CDC / Honduras)) (UniProt Q27743); assay: PfLDH activity inhibition – cell lysate, 3D7 strain, counter-screen for P. falciparum growth inhibition project (AID 2304);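 note: 0% = vehicle and 100% = reference inhibitor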; settings: P. falciparum 3D7 crude extract, LDH APAD/NBT absorbance; at 2 µM; stronger effect = higher value
Sequence (Q27743 whole entry, looked up): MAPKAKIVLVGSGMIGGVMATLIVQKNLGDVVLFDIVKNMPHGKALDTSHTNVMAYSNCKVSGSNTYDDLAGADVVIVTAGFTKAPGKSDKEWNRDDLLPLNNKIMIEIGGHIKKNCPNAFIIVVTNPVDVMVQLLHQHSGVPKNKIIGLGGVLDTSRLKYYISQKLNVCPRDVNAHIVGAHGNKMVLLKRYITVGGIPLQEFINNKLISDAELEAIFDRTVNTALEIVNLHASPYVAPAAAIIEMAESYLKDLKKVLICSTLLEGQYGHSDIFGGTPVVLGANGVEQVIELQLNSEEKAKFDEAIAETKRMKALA
Give measured inhibition for each item. Keep answers brief.
Reply with just the number (in %).

Q: Provide measured inhibition value, entry: COc1cc2nccc(Nc3ccc(OCc4ccccc4)cc3)c2cc1OC
Result: 1

Q: Provide measured inhibition value, entry: FC(F)(F)c1ccc2nc(-c3cccc(-c4cccc(CNCCc5ccncc5)c4)c3)[nH]c2c1
Result: -8

Q: Provide measured inhibition value, entry: COc1ccc(C2CCC(NCCCCNC(=O)c3ccc(NC(=O)c4ccc(Cl)cc4)cc3)CC2)cc1 (configuration not stated)
Result: -6

Q: Provide measured inhibition value, entry: COc1cc2nc(N3CCC(CNC(=O)c4ccc(-c5cccc(C#N)c5)cc4)CC3)nc(N)c2cc1OC
Result: 6

Q: Provide measured inhibition value, entry: NC(N)=Nc1ccc(OCCCCCOc2ccc(N=C(N)N)c(Cl)c2)cc1Cl
Result: 6

Q: Provide measured inhibition value, entry: Fc1ccc2nc(-c3ccc(-c4ccc(CNCCc5cccnc5)cc4)s3)[nH]c2c1
Result: -7

Q: Provide measured inhibition value, entry: CN1CCN(c2ccc(-c3nc4c(C(N)=O)c(OCc5cc(Cl)cc(Cl)c5)ccc4[nH]3)cc2)CC1
Result: -2

Q: Provide measured inhibition value, entry: COc1cc(C)ccc1N1CCN(CCCCNC(=O)c2ccc(NC(=O)c3ccc(Cl)cc3)cc2)CC1
Result: 4

Q: Provide measured inhibition value, entry: c1ccc(COc2ccc(Cn3ccc(-c4ccc(-n5ccnc5)cc4)n3)cc2)cc1 (tested in a mixture with another compound)
Result: -1

Q: Provide measured inhibition value, entry: COc1cc(Nc2ccnc3ccc(C(F)(F)F)cc23)ccc1OCCCc1ccccc1
Result: -10

Q: Provide measured inhibition value, entry: COc1ccc(C2CCN(CCCCNC(=O)c3ccc(NC(=O)c4ccc(Cl)cc4)cc3)CC2)cc1Cl
Result: 4

Q: Provide measured inhibition value, entry: Cc1ccc2c(OCCN3CCC(Cc4cc5c(cc4F)OCC(=O)N5)CC3)cc(F)cc2n1
Result: 3

Q: Provide measured inhibition value, entry: O=C1CCCN1CCCNCc1cccc(-c2ccc(-c3nc4ccccc4[nH]3)s2)c1
Result: -3

Q: Provide measured inhibition value, entry: N#Cc1cc(C(=O)c2cc(Br)ccc2O)cn(C2CCCCC2)c1=O
Result: 3

Q: Provide measured inhibition value, entry: O=C(/C=C/c1ccc(Cl)c(Cl)c1)NCCCCCN1CCCN(C(=O)Nc2ccc(F)c(F)c2)CC1
Result: -2

Q: Provide measured inhibition value, entry: COc1ccc2nccc([C@@H](O)CN3CCC(NCCOc4cccc(F)c4F)CC3)c2c1
Result: 3

Q: Provide measured inhibition value, entry: COc1ccc2nccc([C@H](O)CN3CCC(NCc4ccc5c(c4C)OCCO5)CC3)c2n1
Result: 4

Q: Provide measured inhibition value, entry: CC1(CCc2ccccc2)N=C(N)N(Cc2ccccc2)C(=O)C1c1ccc(Cl)c(Cl)c1 (configuration not stated)
Result: -4

Q: Provide measured inhibition value, entry: CN1CCN(CC(=O)Nc2ccc(-c3cccc(-c4nc5ccc(C(F)(F)F)cc5[nH]4)c3)cc2)CC1
Result: -5

Q: Provide measured inhibition value, entry: CCCc1ccc(C2CCN(CCCCNC(=O)c3ccc(NC(=O)c4ccc(Cl)cc4)cc3)CC2)cc1
Result: 1

Q: Provide measured inhibition value, entry: Cc1nn(-c2cccc(C(F)(F)F)c2)c2sc(C(=O)NC3CCN(C(C)C)CC3)cc12
Result: -4

Q: Provide measured inhibition value, entry: NC(=O)c1cccc(C(=O)Nc2cccc(-c3cccc(-c4nc5ccccc5[nH]4)c3)c2)c1
Result: 2

Q: Provide measured inhibition value, entry: CCNc1cc(C)nc(Nc2ccc(NC(=O)c3ccccc3Cl)cc2)n1
Result: -2

Q: Provide measured inhibition value, entry: N#Cc1ccc(CN2CCC(Oc3ccc(NC(=O)c4cccs4)cc3Cl)CC2)cc1
Result: -1

Q: Provide measured inhibition value, entry: Cn1nccc1C(=O)NCCNCc1ccc(-c2ccc(-c3nc4ccc(C(F)(F)F)cc4[nH]3)s2)cc1
Result: -5

Q: Provide measured inhibition value, entry: COc1cc(C(=O)Nc2cccc(-c3cn4cccc(C)c4n3)c2)cc(OC)c1OC
Result: -1

Q: Provide measured inhibition value, entry: Cc1cc(N[C@@H](Cc2ccccc2)C(=O)NCCOc2ccccc2)nc(NCCc2ccccc2)n1
Result: -1

Q: Provide measured inhibition value, entry: CCCCN(CCCC)CCCCCCNc1c2ccccc2nc2ccccc12
Result: 7

Q: Provide measured inhibition value, entry: CC(C)C[C@H](NC(=O)c1cc2ccccc2s1)C(=O)N[C@H]1CCN(Cc2ccc(OC[C@@H]3CCCN3C)c(Cl)c2)C1
Result: -4

Q: Provide measured inhibition value, entry: CS(=O)(=O)c1ccc(CNCc2ccc(-c3cccc(-c4nc5ccc(F)cc5[nH]4)c3)cc2)cc1
Result: -5

Q: Provide measured inhibition value, entry: Cc1[nH]c(C)c(-c2ccc(/C=C/c3ccccn3)cc2)c(=O)c1Cl
Result: -2

Q: Provide measured inhibition value, entry: Fc1ccc(NC(=S)NCCc2ccccc2)cc1
Result: 3

Q: Provide measured inhibition value, entry: N#Cc1ccc(N2CCN(Cc3cccc(-c4cccc(-c5nc6ccc(C(F)(F)F)cc6[nH]5)c4)c3)CC2)nc1
Result: 6

Q: Provide measured inhibition value, entry: O=C(Nc1ccccc1F)NC1CCN(c2ccnc(Nc3ccc(F)cc3)n2)CC1
Result: -4

Q: Provide measured inhibition value, entry: Cc1cc(C2CCN(CCCCNC(=O)c3ccc(-c4ccc(C(F)(F)F)cc4)cc3)CC2)c(C)cc1OCC#N
Result: 3

Q: Provide measured inhibition value, entry: CCC[C@@H]([C@@H](CC1CCCCC1)C(=O)N[C@@H](CCCCNS(C)(=O)=O)C(=O)Nc1nccs1)N(O)C=O
Result: -1

Q: Provide measured inhibition value, entry: O=C(NCCCCN1CCC(C(c2ccccc2)c2ccccc2)CC1)c1ccc(NC(=O)c2ccc(Cl)cc2)cc1
Result: -2
